Provide the reported pIC50 of each item.
target.desc: HLA-C0702 (Homo sapiens)
pIC50: −log10 of the molar value. Peptide text beside a SMILES is read from it.

Illustrative cases are given below, each with its answer.
[
  {
    "molecule": "CC[C@H](C)[C@H](NC(=O)[C@@H]1CCCN1C(=O)[C@H](CCSC)NC(=O)[C@H](CC(C)C)NC(=O)[C@H](CC(C)C)NC(=O)[C@H](CO)NC(=O)[C@H](Cc1ccc(O)cc1)NC(=O)[C@@H](N)Cc1ccc(O)cc1)C(=O)N[C@@H](CC(C)C)C(=O)O [Epitope M95]",
    "target.desc": "HLA-C0702 (Homo sapiens)",
    "test.readout": "pIC50",
    "endpoint.value": "< 4.82"
  },
  {
    "molecule": "CC[C@H](C)[C@H](NC(=O)[C@@H]1CCCN1C(=O)[C@@H](NC(=O)[C@H](Cc1c[nH]cn1)NC(=O)[C@H](CCCCN)NC(=O)[C@H](CO)NC(=O)[C@@H](N)Cc1ccc(O)cc1)[C@@H](C)O)C(=O)N[C@@H](CC(N)=O)C(=O)N[C@@H](CC(C)C)C(=O)O [Epitope M127] (H-YSKHTPINL-OH; N-terminus and C-terminus assumed)",
    "target.desc": "HLA-C0702 (Homo sapiens)",
    "test.readout": "pIC50",
    "endpoint.value": "< 4.82"
  }
]

# pIC50 (molecule: CC(C)C[C@H](NC(=O)[C@H](CC(C)C)NC(=O)[C@H](Cc1ccccc1)NC(=O)[C@@H](NC(=O)[C@@H](NC(=O)[C@H](Cc1ccccc1)NC(=O)[C@H](C)NC(=O)[C@H](CC(C)C)NC(=O)[C@@H](N)Cc1ccccc1)C(C)C)C(C)C)C(=O)O [Epitope M76] (H-FLAFVVFLL-OH; N-terminus and C-terminus assumed) ) is 4.82 to 5.30

###

target.desc: HLA-B4801 (Homo sapiens, UniProt P01889, A269T/A93T/A95T/D138N/D98Y/E176V/N87E/Q94N/R180L/T167S/W171L/Y91S)
procedure.details: Competitive peptide binding assay, CIR-B4801
measurement.context: HMy2.CIR-B4801 cells, reference Cy5-[…], class from inhibition at 5 and 15 μM, flow cytometry MFI; read-out: Binding affinity with HLA-B4801
Procedure: Then, competitive peptide binding assays were performed.
pIC50: −log10 of the molar value. Peptide text beside a SMILES is read from it.
test.readout: pIC50

Illustrative cases are given below, each with its answer.
[
  {
    "molecule": "CC(C)C[C@H](NC(=O)[C@H](CC(=O)O)NC(=O)[C@@H](NC(=O)[C@H](CC(=O)O)NC(=O)[C@@H](NC(=O)[C@H](Cc1c[nH]cn1)NC(=O)[C@H](CO)NC(=O)[C@H](CCC(=O)O)NC(=O)[C@H](C)N)C(C)C)[C@@H](C)O)C(=O)O [Epitope Y198] (H-AESHVDTDL-OH; N-terminus and C-terminus assumed)",
    "pIC50": "< 4.82"
  },
  {
    "molecule": "CSCC[C@H](NC(=O)[C@H](CCCCN)NC(=O)CN)C(=O)N[C@@H](CCCCN)C(=O)N[C@@H](CC(=O)O)C(=O)N[C@@H](CC(C)C)C(=O)N[C@@H](CO)C(=O)N1CCC[C@H]1C(=O)N[C@@H](CCCNC(=N)N)C(=O)N[C@@H](Cc1c[nH]c2ccccc12)C(=O)O [Epitope Y224] (H-GKMKDLSPRW-OH; N-terminus and C-terminus assumed)",
    "pIC50": "4.82 to 5.30"
  }
]

# input for lookup
# pIC50 (molecule: C[C@H](NC(=O)[C@H](CO)NC(=O)[C@@H](N)CCCCN)C(=O)NCC(=O)N[C@@H](Cc1ccccc1)C(=O)N1CCC[C@H]1C(=O)N[C@@H](Cc1ccccc1)C(=O)N[C@@H](CC(N)=O)C(=O)N[C@@H](CCCCN)C(=O)N[C@@H](Cc1c[nH]c2ccccc12)C(=O)O [Epitope Y306] (H-KSAGFPFNKW-OH; N-terminus and C-terminus assumed) ) is < 4.82
